Target: T1, human Ly6E, N-terminal gD-tagged, stably expressed on PC3 cells (human, UniProt Q16553 21-101)
T1 construct: GPI-linked protein on cells; also called hu Ly6E; human Ly6E transfected PC3 cells; not shown: N-terminal gD tag of the retroviral vector
T1 sequence: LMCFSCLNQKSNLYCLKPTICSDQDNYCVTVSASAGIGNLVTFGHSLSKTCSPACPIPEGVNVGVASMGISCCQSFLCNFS
Experiment: cell-based competitive binding on human Ly6E PC3 cells; competitor mouse 9B12
I'd be grateful if you could share measured IC50 for these entries.
One number for each entry, in µM.

These solved cases illustrate the format of a correct answer.
INSERT INTO assay_data (binder, observed_result) VALUES
  ('humanized 9B12 variant v20 (antibody, V domains shown, IgG. k1 graft 43+44+71 / VH3 graft + 24 + 48 + 67 + 71 + 76 + 78; Residue changes derived) VH: EVQLVESGGGLVQPGGSLRLSCAVSGFSLTGYSVNWVRQAPGKGLEWLGMIWGDGSTDYNSALKSRLTISKDNSKSTVYLQMNSLRAEDTAVYYCARDYYFNYASWFAYWGQGTLVTVSS VL: DIQMTQSPSSLSASVGDRVTITCSASQGISNYLNWYQQKPGKTVKLLIYYTSNLHSGVPSRFSGSGSGTDYTLTISSLQPEDFATYYCQQYSELPWTFGQGTKVEIK', 0.026),
  ('humanized 9B12 variant v5 (antibody, V domains shown, IgG. k1 graft / VH3 graft + 71 + 78; Residue changes derived) VH: EVQLVESGGGLVQPGGSLRLSCAASGFSLTGYSVNWVRQAPGKGLEWVGMIWGDGSTDYNSALKSRFTISKDNSKNTVYLQMNSLRAEDTAVYYCARDYYFNYASWFAYWGQGTLVTVSS VL: DIQMTQSPSSLSASVGDRVTITCSASQGISNYLNWYQQKPGKAPKLLIYYTSNLHSGVPSRFSGSGSGTDFTLTISSLQPEDFATYYCQQYSELPWTFGQGTKVEIK', 0.07);

// switching to the query binder
Task: Looking for the measured IC50 of humanized 9B12 variant v16 (antibody, V domains shown, IgG. k1 graft 43+44+71 / VH2 graft + 24 + 37 + 49; Residue change derived) VH: EVQLVESGPALVKPTQTLTLTCTVSGFSLTGYSVNWVRQPPGKALEWLGMIWGDGSTDYNSALKSRLTISKDTSKNQVVLTMTNMDPVDTATYYCARDYYFNYASWFAYWGQGTLVTVSS VL: DIQMTQSPSSLSASVGDRVTITCSASQGISNYLNWYQQKPGKTVKLLIYYTSNLHSGVPSRFSGSGSGTDYTLTISSLQPEDFATYYCQQYSELPWTFGQGTKVEIK , can you help?
Output: 0.027
